Origin of measurements: patent US20100278834A1

biological target: hemagglutinin of H5N1 clade 1 strain A/Hong Kong/213/03 (influenza A virus A/Hong Kong/213/03 (H5N1)); assay: cell-based or functional assay
measure: IC50, neutralisation of retroviral pseudotypes (ng/mL)
Please respond with the number in ng/mL and leave the unit unwritten.

Here's what some known entries look like.
>  <binder>
FLA3.14 (antibody, V domains shown) VH: EVQLVQSGAEVKKPGESLKISCQASGYSFTSRWIGWVRQMPGKGLEWVGFIYPSDSDVRYSPSFRGQVTISADKSISTAYLQWSSLKASDTAMYFCARLGGNKDYGDYLWYFDLWGRGALVTVSS VL: EIVMTQSPDTLSVSPGERATLSCRASQSVNRRLAWYQQKPGQAPRLLIHDASTRATGIPARFSGSGSGTEFTLTISSLQSEDFAVYYCQQYDNWLSFGQGTRLEIK

>  <val>
33

$$$$
>  <binder>
FLD129 (antibody, V domains shown) VH: EVQLVESGGGLVQPGRSLRLSCAASGFTFSDFWMSWVRQAPGKGLEWVANIDQDGNERFYADSVKGRFTISRDNAKNSLYLQMTSLRADDTAVYYCARDGREGYFYGSGSFYNLKGLNWGQGTLLTVSS VL: QSVLTQPPSVSAAPGQRVTISCSGTSSNIGKNYVSWYQQLPGAAPKLLIYDNDKRPSGIPDRFSGSKSGTSATLGITGLQTGDEADYYCGTWDSSLSVGMFGGGTRLTVL

>  <val>
0.5

$$$$
>  <binder>
FLD20.19 (antibody, V domains shown) VH: QVQLVQSGAEVKKPGSSVTVSCKASGGTFSNYGISWVRQAPGQGLDWMGGIIPLFGTANYAQKFQGRVTITADESTSSSNMELSSLRSEDTAVYYCARDVHNYDFLTGYPLHLYGMDVWGQGTTVTVSS VL: DIQMTQSPSSLSASVGDRVTITCRASQSISTYLNWYQQKPGIPPKLLINVASSLQSGVPSRFSGSGSGTDFTLTISSLQPEDFASYYCQQTYSSPPTFGQGTKVEIK

>  <val>
10

$$$$

# binder FLA5.10 (antibody, V domains shown) VH: QVQLVQSGAEVKEPGSAMKVSCKASGGTFSSDAFCWVRQAPGRGLEWMGGIIPVFQTANYGPNFQGRVTISADVYTTTLYLELSGLTSEDTAVYFCARSGDGYNYYFPLWGQGTLVTVSS VL: DIQMTQSPSTLSGSVGDRVTITCRASQNIGPWLAWYQQESGKAPKLLISRASILESGVPSRFSGTGTGTEFTLTISSLQPDDFATYYCQHYNAYWGTFGQGTKVEIN ; its IC50, neutralisation of retroviral pseudotypes = 2.5
